- ASSAY OVERVIEW: physchem
- EXPERIMENTAL CONDITIONS: pH 8.2, Solubility Conc.
- Method: From a stock solution in vehicle, either H2O or 10 mM phosphate, containing 1 mg (as weighed) compound per ml, 8-11 aliquots are withdrawn and pH-adjusted individually with HCl/NaOH, to cover the whole pH range.
Positions of bridges follow the written chain, without caps; N, C: chain ends. Non-standard residues stand in square brackets, D forms with d. Residues, ends and D or L forms follow the SMILES beside them. *: point of attachment. Lys(CH2CO2H)2 = N[C@@H](CCCCN(CC(=O)O)CC(=O)O)C(=O)O; X1 = O=C(O)CCCCCCCCCCCCCCCCC(=O)NCCOCCOCCN*; Dab = NCC[C@H](N)C(=O)O
ENDPOINT NAME: solubility (µM)
Quick note: give the figure in µM, leave out the unit.

response.value for CC(=O)N[C@H]1CCNC(=O)C[C@@H](C(=O)N2CCC[C@H]2C(=O)N2CCC[C@H]2C(=O)N[C@@H](CCCNC(=N)N)C(=O)N[C@@H](CCC(=O)O)C(=O)N[C@@H](CCCCN(CC(=O)O)CC(=O)O)C(=O)N[C@@H](CO)C(=O)N[C@@H](CO)C(=O)NCCOCCOCCNC(=O)CCCCCCCCCCCCCCCCC(=O)O)NC(=O)[C@H](Cc2c[nH]c3ccccc23)NC(=O)[C@H](CCCNC(=N)N)NC(=O)[C@@H](Cc2ccccc2)NC(=O)[C@H](Cc2c[nH]cn2)NC1=O [Example 9] (Ac-[Dab]H[dF]RWDPPRE[Lys(CH2CO2H)2]SS-X1; lactam 1-6) (field: solubility) = 280

---

- ASSAY OVERVIEW: physchem
- EXPERIMENTAL CONDITIONS: pH 6.7, Solubility Conc.
Positions of bridges follow the written chain, without caps; N, C: chain ends. Non-standard residues stand in square brackets, D forms with d. Residues, ends and D or L forms follow the SMILES beside them. Groups on a side chain read outwards from the residue. *: point of attachment. Lys(CH2CO2H)2 = N[C@@H](CCCCN(CC(=O)O)CC(=O)O)C(=O)O; C16 diacid = O=C(O)CCCCCCCCCCCCCCC(=O)*; hCys = N[C@@H](CCS)C(=O)O; AEEA = NCCOCCOCC(=O)O
ENDPOINT NAME: solubility (µM)
Quick note: give the figure in µM, leave out the unit.

response.value for CC(=O)N[C@H]1CCSSC[C@@H](C(=O)N2CCC[C@H]2C(=O)N2CCC[C@H]2C(=O)N[C@@H](CCCCN)C(=O)N[C@@H](CCC(=O)O)C(=O)N[C@@H](CCCCN(CC(=O)O)CC(=O)O)C(=O)N[C@@H](CCCCNC(=O)COCCOCCNC(=O)CCCCCCCCCCCCCCC(=O)O)C(N)=O)NC(=O)[C@H](Cc2c[nH]c3ccccc23)NC(=O)[C@H](CCCNC(=N)N)NC(=O)[C@@H](Cc2ccccc2)NC(=O)[C@H](Cc2c[nH]cn2)NC1=O [Example 5] (Ac-[hCys]H[dF]RWCPPKE[Lys(CH2CO2H)2]K([AEEA-C16 diacid])-NH2; disulfide 1-6) (field: solubility) = 320

---

- ASSAY OVERVIEW: physchem
- EXPERIMENTAL CONDITIONS: pH 6.8, Solubility Conc.
- Procedure: From a stock solution in vehicle, either H2O or 10 mM phosphate, containing 1 mg (as weighed) compound per ml, 8-11 aliquots are withdrawn and pH-adjusted individually with HCl/NaOH, to cover the whole pH range.
Positions of bridges follow the written chain, without caps; N, C: chain ends. Non-standard residues stand in square brackets, D forms with d. Residues, ends and D or L forms follow the SMILES beside them. Groups on a side chain read outwards from the residue. *: point of attachment. Lys(CH2CO2H)2 = N[C@@H](CCCCN(CC(=O)O)CC(=O)O)C(=O)O; C16 diacid = O=C(O)CCCCCCCCCCCCCCC(=O)*; Orn = NCCC[C@H](N)C(=O)O; AEEA = NCCOCCOCC(=O)O
ENDPOINT NAME: solubility (µM)
Quick note: give the figure in µM, leave out the unit.

response.value for CC(=O)N[C@H]1CCC(=O)NCCC[C@@H](C(=O)N2CCC[C@H]2C(=O)N2CCC[C@H]2C(=O)N[C@@H](CCCNC(=N)N)C(=O)N[C@@H](CC(=O)O)C(=O)N[C@@H](CCCCN(CC(=O)O)CC(=O)O)C(=O)N[C@@H](CCCCNC(=O)COCCOCCNC(=O)CCCCCCCCCCCCCCC(=O)O)C(N)=O)NC(=O)[C@H](Cc2c[nH]c3ccccc23)NC(=O)[C@H](CCCNC(=N)N)NC(=O)[C@@H](Cc2ccccc2)NC(=O)[C@H](Cc2cnc[nH]2)NC1=O [Example 18] (Ac-EH[dF]RW[Orn]PPRD[Lys(CH2CO2H)2]K([AEEA-C16 diacid])-NH2; lactam 1-6) (field: solubility) = 447
